Provenance of the data: patent US9512087B2

The molecules below have reported MIC50 for C. krusei ATCC 6258.
assay_endpoint: MIC50 (µg/mL)

molecule	MIC50 / µg/mL
COc1ccc(C(=O)/C=C/c2ccc(OCC(O)(Cn3cncn3)c3ccc(F)cc3F)c(OC)c2)cc1 (stereo not shown) [Compound 1A-23]	2

1 = Cc1ccc(C(=O)/C=C/c2ccc(OCC(O)(Cn3cncn3)c3ccc(F)cc3F)cc2)cc1 (stereo not shown) [Compound 1A-21]
2 = O=C(/C=C/c1ccccc1F)c1ccc(OCC(O)(Cn2cncn2)c2ccc(F)cc2F)cc1 (stereo not shown) [Compound 1A-8]
3 = O=C(/C=C/c1cccs1)c1ccc(OCC(O)(Cn2cncn2)c2ccc(F)cc2)cc1 (stereo not shown) [Compound 1A-17]
I would appreciate it if you could sort these 3 molecules by MIC50, starting from the smallest number. As an answer, provide the labels arranged in the order called for.
1, 2, 3
(1: 2 µg/mL, 2: 4 µg/mL, 3: 8 µg/mL)
